# System: LPS-induced NO production in RAW 264.7 cells
# experiment: NO production in LPS-activated RAW 264.7 macrophage cells (DAF-FM diacetate)
# Assay type: cell-based
# reported_conditions: Mus musculus, RAW264.7; LPS-activated RAW 264.7 cells; mean ± SEM, three replicates
measured_attribute: pIC50
Reminder that pIC50 is minus the log10 of a molar concentration.

Sample records with pIC50:
# compound, measured_attribute, endpoint_value
measured = [
    ("CC1N(NC(=O)Nc2ccc(F)cc2)C(=O)c2ccccc2N1C (stereo not drawn) [Compound 6l]", "pIC50", 5.28),
    ("CN1c2ccccc2C(=O)N(NC(=O)Nc2ccccc2)C1c1ccc(F)cc1 (stereo not drawn) [Compound 6d]", "pIC50", 5.39),
    ("CN1c2ccccc2C(=O)N(NC(=O)Nc2ccc(F)cc2)C1c1ccccc1 (stereo not drawn) [Compound 6m]", "pIC50", 4.99),
]

### Prompt Look up and state reported pIC50 for COc1ccc(NC(=O)NN2C(=O)c3ccccc3N(C)C2c2ccc(OC)cc2)cc1 (stereo not drawn) [Compound 6j]
### Response 4.87

### Prompt Identify pIC50 associated with the compound CN1c2ccccc2C(=O)N(NC(=O)Nc2ccccc2)C1c1ccccc1 (stereo not drawn) [Compound 6c]
### Response 5.81

### Prompt Please give the documented pIC50 of CN1CN(NC(=O)Nc2ccccc2)C(=O)c2ccccc21 [Compound 6a]
### Response 6.01

----------
# System: HL-60(TB)
# experiment: NCI single dose screen, HL-60(TB)
# Assay type: cell-based
# reported_conditions: Homo sapiens, leukaemia, single dose 10^−5 M, read-out: growth inhibition percentage
# maps each entry to its inhibition at 10 µM

These recorded examples may help you get a feel for the data.
# molecule, system, endpoint_value
records = [
    ("CN1c2ccccc2C(=O)N(NC(=O)Nc2ccc(F)cc2)C1c1ccccc1 (stereo not shown)", "HL-60(TB)", "< 10%"),
    ("CN1c2ccccc2C(=O)N(NC(=O)Nc2ccccc2)C1c1ccccc1 (stereo not shown)", "HL-60(TB)", "< 10%"),
    ("COc1ccc(C2N(NC(=O)Nc3ccc(F)cc3)C(=O)c3ccccc3N2C)cc1 (stereo not shown)", "HL-60(TB)", "< 10%"),
    ("CN1c2ccccc2C(=O)N(NC(=O)Nc2ccccc2)C1c1ccc([N+](=O)[O-])cc1 (stereo not shown)", "HL-60(TB)", "< 10%"),
    ("CN1c2ccccc2C(=O)N(NC(=O)Nc2ccc(F)cc2)C1c1ccc(F)cc1 (stereo not shown)", "HL-60(TB)", "< 10%"),
]

### Prompt Provide one value: measured inhibition at 10 µM of CC1N(NC(=O)Nc2ccc(F)cc2)C(=O)c2ccccc2N1C (stereo not shown)
### Response < 10%

### Prompt Provide inhibition at 10 µM value for the following molecule: CN1c2ccccc2C(=O)N(NC(=O)Nc2ccccc2)C1c1ccc(F)cc1 (stereo not shown)
### Response < 10%

### Prompt Recall and state the measured inhibition at 10 µM for CN1CN(NC(=O)Nc2ccccc2)C(=O)c2ccccc21 .
### Response < 10%

### Prompt Complete the entry with inhibition at 10 µM for CN1c2ccccc2C(=O)N(NC(=O)Nc2ccc(F)cc2)C1c1ccc([N+](=O)[O-])cc1 (stereo not shown)
### Response < 10%

### Prompt Quote inhibition at 10 µM reported for COc1ccc(NC(=O)NN2C(=O)c3ccccc3N(C)C2c2ccc(OC)cc2)cc1 (stereo not shown) please.
### Response < 10%
